experiment: Hygroscopicity by Dynamic Vapor Sorption Analysis (DVS)
Format: physicochemical
stated.conditions: RH → 75%
Threshold 0.05%: Relative weight change (dm) strictly smaller gives Criterion met, otherwise Criterion not met.

Query :: Given FC(F)(F)Oc1ccc(Nc2ccc3cccc(Cl)c3n2)cc1.O=S(=O)(O)O [H2SO4] , is recorded Relative weight change (dm) strictly lower than 0.05%?
Result :: Criterion not met

Query :: Given FC(F)(F)Oc1ccc(Nc2ccc3cccc(Cl)c3n2)cc1 [free base] , is recorded Relative weight change (dm) strictly lower than 0.05%?
Result :: Criterion met

Query :: Given Cl.FC(F)(F)Oc1ccc(Nc2ccc3cccc(Cl)c3n2)cc1 [HCl] , is recorded Relative weight change (dm) strictly lower than 0.05%?
Result :: Criterion not met

Query :: Given FC(F)(F)Oc1ccc(Nc2ccc3cccc(Cl)c3n2)cc1.O=S(=O)(O)c1ccccc1 [besylate] , is recorded Relative weight change (dm) strictly lower than 0.05%?
Result :: Criterion not met
